# System: DU-145
# experiment.description: NCI tumour cell line growth inhibition, 48 h
The source made the active and inactive calls. Rule as the data show it: active = GI50 up to about 1.1 µM and inactive = higher.
Overview of recorded GI50 for various molecules

Below, each entry is followed by its recorded GI50 result.
CC1(C)OC(CP(c2ccccc2)c2ccccc2)C(CP(c2ccccc2)c2ccccc2)O1 (stereo not given) ... 2.23 µM (inactive)
COc1cc2c[n+](C)c3c4cc(OC)c(OCc5ccccc5)cc4c(OCc4ccccc4)cc3c2cc1OC ... 11.5 µM (inactive)
C/C(=N\NC(=S)N1CCN(c2ccccn2)CC1)c1cccc2cccnc12 ... 3.56 µM (inactive)
Cc1c(/C=N/NC(=S)N2CCCCC2)c(=O)n(-c2ccccc2)n1C ... > 100 µM (inactive)

# input Requested read-out: GI50. Entry: `N#Cc1c(-c2ccc([N+](=O)[O-])cc2)cc(-c2ccc(Nc3ccnc4cc(Cl)ccc34)cc2)nc1N`
# output 11 µM (inactive)

# input Requested read-out: GI50. Entry: `COc1ccc2c(c1OC)C(=O)O[C@@H]2[C@H]1c2c(cc3c(c2OC)OCO3)CCN1C`
# output > 100 µM (inactive)

# input Requested read-out: GI50. Entry: `O=C(NCCN1CCCCC1)c1ccc(I)cc1`
# output 69.3 µM (inactive)

# input Requested read-out: GI50. Entry: COC(=O)C1(C(=O)OC)N=C(C)OC1C(C)C (stereo not given)
# output > 100 µM (inactive)

# input Requested read-out: GI50. Entry: `CCOC(=O)c1sc2nc(SC)nc3c2c1NCN3c1ccc(F)c(F)c1`
# output 8.43 µM (inactive)

# input Requested read-out: GI50. Entry: `O=c1[nH]nc(-c2ccccc2)n1-n1cccc1`
# output > 100 µM (inactive)
